Source of measurements: patent US20110318768A1

# System: MDA-MB-435S breast cancer cell line
# TEST_METHOD_NOTES: Growth inhibition by lapatinib (Cell Titer-Glo)
# Type: cell-based
# SETTINGS: Homo sapiens, read-out: Reference example 1 Sensitivity to lapatinib

- SMILES_DATA: "CS(=O)(=O)CCNCc1ccc(-c2ccc3ncnc(Nc4ccc(OCc5cccc(F)c5)c(Cl)c4)c3c2)o1"
  TARGET_ENTITY: "MDA-MB-435S breast cancer cell line"
  IC50: "≥ 1000 nM"

====

# System: tyrosine kinase in cell membrane fraction of HCC1806
# TEST_METHOD_NOTES: Tyrosine kinase activity inhibition rate in cell membrane fraction (Poly-Glu4-Tyr substrate)
# Format: biochemical
# SETTINGS: 25 μM kinase inhibitor, 25 μM ATP

- SMILES_DATA: "CS(=O)(=O)CCNCc1nc(-c2ccc3ncnc(Nc4ccc(OCc5cccc(F)c5)c(Cl)c4)c3c2)cs1.Cl.Cl"
  Inhibition rate: "68.4%"
- SMILES_DATA: "CN(C)c1cc2c(Nc3ccc4c(cnn4Cc4ccccc4)c3)ncnc2cn1"
  Inhibition rate: "33.7%"
- SMILES_DATA: "COc1cc2ncnc(Nc3ccc(OCc4ccccc4)cc3)c2cc1OC"
  Inhibition rate: "56.4%"
- SMILES_DATA: "CCCNC(=O)Nc1ccc(Oc2ncnc3cc(OC)c(OC)cc23)cc1Cl"
  Inhibition rate: "27.7%"
- SMILES_DATA: "COc1cc2ncnc(Nc3ccc(Oc4ccccc4)cc3)c2cc1OC"
  Inhibition rate: "67.1%"
- SMILES_DATA: "COc1cc2c(cc1OC)-c1[nH]nc(Nc3cccc(F)c3)c1C2"
  Inhibition rate: "38.8%"

====

# Tested on: SK-BR-3 breast cancer cell line
# TEST_METHOD_NOTES: Growth inhibition by lapatinib (Cell Titer-Glo)
# Type: cell-based
# SETTINGS: Homo sapiens, 72 hours culture, read-out: IC50
pIC50: −log10 of the molar value.
QUANTITY_MEASURED: pIC50

- SMILES_DATA: "CS(=O)(=O)CCNCc1ccc(-c2ccc3ncnc(Nc4ccc(OCc5cccc(F)c5)c(Cl)c4)c3c2)o1"
  TARGET_ENTITY: "SK-BR-3 breast cancer cell line"
  REPORTED_RESULT: 6.50

====

# Test system: SK-BR-3 breast cancer cell line
# TEST_METHOD_NOTES: Growth inhibition by lapatinib (Cell Titer-Glo)
# Format: cell-based
# SETTINGS: Homo sapiens, read-out: Reference example 1 Sensitivity to lapatinib

- SMILES_DATA: "CS(=O)(=O)CCNCc1ccc(-c2ccc3ncnc(Nc4ccc(OCc5cccc(F)c5)c(Cl)c4)c3c2)o1"
  IC50: "< 1 µM"

====

# Tested on: HCC1806 breast cancer cell line
# TEST_METHOD_NOTES: Growth inhibition by lapatinib (Cell Titer-Glo)
# Format: cell-based
# SETTINGS: Homo sapiens, read-out: Reference example 1 Sensitivity to lapatinib
# Description: The sensitivity of cell lines to EGFR/HER2 inhibitor was examined by culturing breast cancer cell lines shown in Table 3 in the presence of EGFR/HER2 inhibitor and examining growth inhibition effects on the cell lines. The breast cancer cell lines shown in Table 3 were seeded in a 96 well assay plate (#3917: Costar) at 4,000 cells/well, and cultured at 37° C. […]
QUANTITY_MEASURED: IC50

- COMPOUND: "CS(=O)(=O)CCNCc1ccc(-c2ccc3ncnc(Nc4ccc(OCc5cccc(F)c5)c(Cl)c4)c3c2)o1 [lapatinib]"
  QUANTITY_MEASURED: "IC50"
  REPORTED_RESULT: "≥ 1 µM"
